// reported speed of sound for each item listed
Details: 298.15 K; 100 kPa; Liquid; Sing-around technique in a fixed-path interferometer
The answer is to be given in m/s; state only the numeric part.

Would you please look over these solved cases?
>  <Compound>
CCCCCO [pentan-1-ol]

>  <speed of sound [m/s]>
1276

$$$$
>  <Compound>
CCCCO [butan-1-ol]

>  <speed of sound [m/s]>
1240

$$$$
>  <Compound>
CCCO [propan-1-ol]

>  <speed of sound [m/s]>
1209

$$$$

Given the entry CCO [ethanol] , report its measured speed of sound.
1143

###

Assay: refractive index (Na D-line) (dimensionless)
Settings: 318.15 K; 100 kPa; Liquid; Standard Abbe refractometry
In this section, each of the compounds is paired with its reported refractive index.
Output: the number by itself.

>  <Compound>
CCCO [propan-1-ol]

>  <refractive index>
1.37421

$$$$
>  <Compound>
CCO [ethanol]

>  <refractive index>
1.35083

$$$$
>  <Compound>
CCCCCO [pentan-1-ol]

>  <refractive index>
1.39942

$$$$

Now for the compound whose refractive index we want.
Need refractive index, item CCCCO [butan-1-ol]
1.38857
